target under test: human CLDN18.2 (human)
method description: cell-based or functional assay
Consider the following binders and their measured ADCC EC50, KATO-III target cells, human PBMC effectors readings.
endpoint label: ADCC EC50, KATO-III target cells, human PBMC effectors

• 7004-09hu15 (antibody, human IgG1, kappa, V domains shown, humanized antibody of murine 44F7, human IgG1/kappa constant regions) VH: QVQLVQSGAEVKKPGASVKVSCKASGYTFTSYYMHWVRQAPGQGLEWMGTIYPGNGDTSYNQKFQGRVTMTRDKSTSTVYMELSSLRSEDTAVYFCARGGYYGNSLDYWGQGTLVTVSA VL: DIVMTQSPDSLAVSLGERATINCKSSQSVLNSGNQKNYLAWYQQKPGQPPKLLIYWASTRESGVPDRFSGSGSGTDFTLTISSLQAEDVAVYYCQNAYYYPFTFGQGTKLEIKR = 6.1 ng/mL
• 7004-09hu10 (antibody, human IgG1, kappa, V domains shown, humanized antibody of murine 44F7, human IgG1/kappa constant regions) VH: QVQLVQSGAEVKKPGASVKVSCKASGYTFTSYYMHWVRQAPGQGLEWMGTIYPGNGDTSYNQKFQGRVTMTRDKSTSTVYMELSSLRSEDTAVYFCARGGYYGNSLDYWGQGTLVTVSA VL: DIVMTQSPDSLAVSLGERATINCKSSQSLLNSGNQKNYLTWYQQKPGQPPKLLIYWASTRESGVPDRFSGSGSGTDFTLTISSLQAEDVAVYYCQNAYYYPFTFGQGTKLEIKR = 3.3 ng/mL
• 175D10 (antibody, human IgG1, kappa, V domains shown) VH: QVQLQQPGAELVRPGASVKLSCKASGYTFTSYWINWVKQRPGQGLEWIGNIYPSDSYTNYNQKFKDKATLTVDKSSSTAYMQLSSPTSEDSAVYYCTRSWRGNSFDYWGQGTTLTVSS VL: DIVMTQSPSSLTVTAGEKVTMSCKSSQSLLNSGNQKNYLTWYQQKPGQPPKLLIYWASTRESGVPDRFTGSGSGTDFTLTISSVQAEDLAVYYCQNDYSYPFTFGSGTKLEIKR = 788 ng/mL
• 7004-09hu09 (antibody, human IgG1, kappa, V domains shown, humanized antibody of murine 44F7, human IgG1/kappa constant regions) VH: QVQLVQSGAEVKKPGASVKVSCKASGYTFTSYNMHWVRQAPGQGLEWMGTIYPGNGDTSYNQKFQGRVTMTRDKSTSTVYMELSSLRSEDTAVYFCARGGYYGNSLDYWGQGTLVTVSA VL: DIVMTQSPDSLAVSLGERATINCKSSQSLLNSGNQKNYLAWYQQKPGQPPKLLIYWASTRESGVPDRFSGSGSGTDFTLTISSLQAEDVAVYYCQNAYYYPFTFGQGTKLEIKR = 2.8 ng/mL
